The following molecules have recorded pIC50 on Human RIP1 kinase (Homo sapiens (Human), UniProt Q13546).
Sequence (Q13546 whole entry): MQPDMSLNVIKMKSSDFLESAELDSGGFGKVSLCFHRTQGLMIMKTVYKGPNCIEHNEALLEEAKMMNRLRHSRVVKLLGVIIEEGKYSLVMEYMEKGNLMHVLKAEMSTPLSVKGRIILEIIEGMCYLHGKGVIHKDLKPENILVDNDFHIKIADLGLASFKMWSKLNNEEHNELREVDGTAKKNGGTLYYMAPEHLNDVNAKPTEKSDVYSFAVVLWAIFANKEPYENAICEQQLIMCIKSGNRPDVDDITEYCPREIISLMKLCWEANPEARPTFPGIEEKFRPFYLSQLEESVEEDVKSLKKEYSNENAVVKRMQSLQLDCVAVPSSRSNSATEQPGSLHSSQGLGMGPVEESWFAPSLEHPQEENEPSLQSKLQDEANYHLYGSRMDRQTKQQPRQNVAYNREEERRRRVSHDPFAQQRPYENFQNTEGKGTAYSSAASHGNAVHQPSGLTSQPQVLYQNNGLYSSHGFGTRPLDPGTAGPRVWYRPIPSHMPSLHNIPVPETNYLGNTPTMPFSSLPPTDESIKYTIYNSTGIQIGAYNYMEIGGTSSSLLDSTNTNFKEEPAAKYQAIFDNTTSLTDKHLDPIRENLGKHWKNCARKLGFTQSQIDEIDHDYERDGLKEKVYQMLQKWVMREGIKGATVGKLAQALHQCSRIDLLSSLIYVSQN
pIC50: −log10 of the molar value.

Study these solved cases before continuing.
smi: O=C(N(O)Cc1ccccc1)C1(C(F)(F)F)CCC1
pIC50: 6.00 to 7.00

smi: CCC(C)(C)C(=O)N(O)Cc1ccsc1
pIC50: > 7.00

smi: O=C(C1CCN(c2ncc(F)cn2)CC1)N(O)Cc1ccccc1
pIC50: > 7.00

I'm hoping you can list pIC50 for every molecule here, please.
1. O=C(C1CCN(c2ncc(F)cn2)CC1)N(O)Cc1cc(F)cc(F)c1
2. CCC(C)(C)C(=O)N(O)Cc1ccc2c(c1)CCC2
3. CCC(C)(C)C(=O)N(O)Cc1cnc(C)s1
4. CCC(C)(C)C(=O)N(O)Cc1cc(F)cc(F)c1
5. Cc1ccsc1CN(O)C(=O)C(C)(C)C(F)(F)F

> 7.00
> 7.00
6.00 to 7.00
> 7.00
6.00 to 7.00

The value of pIC50 measured for the molecule CCC1(C(=O)N(O)Cc2ccccc2)CC1 turned out to be 6.00 to 7.00
